Form field: Ratio IC50 (one value per entry).
# Species: Homo sapiens
# Assay details: Selectivity ratio of IC50 for BRD3-BD1 (unknown origin) to IC50 for BRD3-BD2 (unknown origin)
Recorded endpoint: Ratio IC50

* CC(=O)N1CCc2c(sc3nc(SCC(=O)Nc4ccccc4)n(Cc4ccco4)c(=O)c23)C1 | 100
* CCOc1ccc(NC(=O)CSc2nc3sc4c(c3c(=O)n2Cc2ccco2)CCN(C(C)=O)C4)cc1 | 4
* COc1cccc(NC(=O)CSc2nc3sc4c(c3c(=O)n2Cc2ccco2)CCN(C(C)=O)C4)c1 | 9
* CC(=O)N1CCc2c(sc3nc(SCC(=O)Nc4ccc(F)cc4F)n(Cc4ccco4)c(=O)c23)C1 | 13
